# Test system: HCT-15 colon
# MEASUREMENT NOTES: NCI tumour cell line growth inhibition, 48 h
Catalogue of TGI values

SAMPLE SMILES: CSC(=S)N(C)NC(=O)c1cccc(C(=O)NN(C)C(=S)SC)n1
TGI: > 100 µM

SAMPLE SMILES: O=C(c1ccc(Cl)cc1)N(Cc1cccnc1)C(=S)N(Cc1cccnc1)C(=O)c1ccc(Cl)cc1
TGI: > 100 µM

SAMPLE SMILES: CC(/C=N/NC1=NCCCCN1)=N\NC1=NCCCCN1
TGI: > 100 µM

SAMPLE SMILES: NNC(=O)CC(=O)Nc1ccccc1F
TGI: > 100 µM

SAMPLE SMILES: Cc1cccc2c(N)c3cccc(C(=O)NCC[N+](C)(C)Cc4sc(N5CCOCC5)nc4[N+](=O)[O-])c3nc12
TGI: 13.3 µM

SAMPLE SMILES: CN(C)CCCNC(=O)c1cc(NC(=O)c2cc(NC(=O)c3cc(NC(=O)CCCn4ccc(CO)c4CO)cn3C)cn2C)cn1C
TGI: > 100 µM

---

# System: M14 melanoma
# MEASUREMENT NOTES: NCI tumour cell line growth inhibition, 48 h
REPORTED ENDPOINT: TGI

COMPOUND: CCOC(OCC)C(CCc1ccccc1)c1c(N)nc(N)[nH]c1=O (configuration not stated)
REPORTED ENDPOINT: TGI
RESULT: > 100 µM

COMPOUND: Cc1cn(C2C=CC(=O)C(C)O2)c(=O)[nH]c1=O (configuration not stated)
REPORTED ENDPOINT: TGI
RESULT: 29.7 µM

COMPOUND: CC1(C)CCc2cc3c(cc2O1)OC(C)(C)C1c2c(ccc4c2CCC(C)(C)O4)OC31 (configuration not stated)
REPORTED ENDPOINT: TGI
RESULT: > 100 µM

COMPOUND: COCC(=O)[C@]1(O)Cc2c(O)c3c(c(O)c2[C@@H](OC2CC(N)C(O)C(C)O2)C1)C(=O)c1c(OC)cccc1C3=O (some centres not stated)
REPORTED ENDPOINT: TGI
RESULT: 0.275 µM

COMPOUND: COc1cc(/C=C(\NC(=O)c2ccccc2)c2nc3ccc([N+](=O)[O-])cc3[nH]2)cc(OC)c1OC
REPORTED ENDPOINT: TGI
RESULT: > 100 µM

COMPOUND: C(=C1\CCC/C(=C/c2ccccc2)C1=NNc1ccccc1)/c1ccccc1
REPORTED ENDPOINT: TGI
RESULT: > 100 µM

COMPOUND: Cc1ccc(C(=O)Nc2ccc(CN3CCN(C)CC3)c(C(F)(F)F)c2)cc1C#Cc1cncc2ncccc12
REPORTED ENDPOINT: TGI
RESULT: 0.9 µM

COMPOUND: O=C1Nc2ccccc2C12CC(c1ccccc1)=NN2 (configuration not stated)
REPORTED ENDPOINT: TGI
RESULT: 46.3 µM

COMPOUND: O=C(/C=C/c1cccs1)c1ccsc1
REPORTED ENDPOINT: TGI
RESULT: > 100 µM

COMPOUND: Cc1nnc(N)nc1/C=C\c1cccs1
REPORTED ENDPOINT: TGI
RESULT: 36.9 µM

COMPOUND: c1ccc(Cn2cc3c(c2)-c2oncc2CC3)cc1
REPORTED ENDPOINT: TGI
RESULT: > 100 µM

COMPOUND: O=C(Nc1ccc2ccccc2c1)Nn1cnnc1
REPORTED ENDPOINT: TGI
RESULT: > 100 µM

COMPOUND: O=C1C[C@@H](c2ccccc2)NCCCCN(O)CCCN1
REPORTED ENDPOINT: TGI
RESULT: > 100 µM

COMPOUND: OCCc1cnco1
REPORTED ENDPOINT: TGI
RESULT: > 100 µM

COMPOUND: CN(N)C(=O)NCCCl
REPORTED ENDPOINT: TGI
RESULT: > 100 µM

COMPOUND: NC1=CC(=O)C(=O)c2cccnc21
REPORTED ENDPOINT: TGI
RESULT: 6.29 µM

COMPOUND: CC1SC2=NC3=C(c4ccccc4C3=O)C(c3ccc(Br)cc3)N2C1=O (configuration not stated)
REPORTED ENDPOINT: TGI
RESULT: > 100 µM

COMPOUND: CC[C@@]1(O)C(=O)OCc2c1cc1n(c2=O)Cc2c-1nc1ccccc1c2/C=N\NC(=O)C(N)CS (some centres not stated)
REPORTED ENDPOINT: TGI
RESULT: 10.5 µM

COMPOUND: Cc1cc2nc3n(c2cc1C)C(c1c(F)cccc1F)SC3 (configuration not stated)
REPORTED ENDPOINT: TGI
RESULT: 40.8 µM

COMPOUND: COc1cc(C(=O)/C=C/c2c(-c3ccc(F)cc3)nc3sccn23)cc(OC)c1OC
REPORTED ENDPOINT: TGI
RESULT: 9.44 µM

COMPOUND: O=C1C=C(N2CC2)c2ccccc2C1=O
REPORTED ENDPOINT: TGI
RESULT: 3.04 µM

COMPOUND: NC(=O)Nc1ccc2ncnc(Nc3ccc(Cl)cc3)c2c1
REPORTED ENDPOINT: TGI
RESULT: 68.6 µM

COMPOUND: CCCCNC(=S)/N=C/c1c(O)c2ccccc2oc1=O
REPORTED ENDPOINT: TGI
RESULT: > 100 µM

COMPOUND: CC(=O)OCC1OC(OCC2OC(N3C(=S)N[C@H]([C@@H](O)[C@H](O)[C@H](O)CO)[C@H]3O)C(OC(C)=O)C(OC(C)=O)C2OC(C)=O)C(OC(C)=O)C(OC(C)=O)C1OC(C)=O (some centres not stated)
REPORTED ENDPOINT: TGI
RESULT: > 100 µM

COMPOUND: COc1ccc2[nH]c(C(=O)N3CC(CCl)c4ccc([N+](=O)[O-])cc43)cc2c1 (configuration not stated)
REPORTED ENDPOINT: TGI
RESULT: > 100 µM

COMPOUND: N#CSCC1COc2ccccc2O1 (configuration not stated)
REPORTED ENDPOINT: TGI
RESULT: > 10 µM

COMPOUND: O=C(CCCn1ccnc1[N+](=O)[O-])NCCn1cnc([N+](=O)[O-])c1
REPORTED ENDPOINT: TGI
RESULT: > 100 µM

COMPOUND: O=C1OCC2=C1C(c1cccc(F)c1)c1cc3c(cc1N2CCO)OCCO3 (configuration not stated)
REPORTED ENDPOINT: TGI
RESULT: > 50 µM

COMPOUND: CCCNC(=O)c1cc2ccccc2cc1C(=O)OC
REPORTED ENDPOINT: TGI
RESULT: > 100 µM

COMPOUND: O=C1C=CC2(O[C@@H](Cc3ccccc3)[C@H](Cc3ccccc3)O2)C(SC(=O)c2ccccc2)C1 (some centres not stated)
REPORTED ENDPOINT: TGI
RESULT: 2.99 µM

COMPOUND: COC(=O)C[C@H](COCc1ccccc1)NC(=O)C[C@H](COCc1ccccc1)NC(=O)C[C@H](COCc1ccccc1)NC(=O)OC(C)(C)C
REPORTED ENDPOINT: TGI
RESULT: > 100 µM

COMPOUND: COc1cc(/C=C/C(=O)c2c(C)n([O-])c3cc(C)c(C)cc3[n+]2=O)cc(OC)c1OC
REPORTED ENDPOINT: TGI
RESULT: 60.2 µM

COMPOUND: CC(=O)Oc1ccc(OC(Oc2ccccc2)c2ccccc2)cc1 (configuration not stated)
REPORTED ENDPOINT: TGI
RESULT: 32.1 µM

COMPOUND: COc1ccc(N2CCN(c3ccc4c(c3)NCC(=O)N4)CC2)cc1
REPORTED ENDPOINT: TGI
RESULT: > 100 µM

COMPOUND: BrP(NC1CCCCCC1)(c1ccccc1)(c1ccccc1)c1ccccc1
REPORTED ENDPOINT: TGI
RESULT: > 100 µM

COMPOUND: CCOC(=O)c1c(-c2[nH]c(C(=O)OCc3ccccc3)c(C)c2C(=O)OCC)[nH]c(C(=O)OCc2ccccc2)c1C
REPORTED ENDPOINT: TGI
RESULT: > 100 µM

COMPOUND: O=C(c1ccc(O)cc1)c1ccc(C(=O)c2ccc(O)cc2)cc1
REPORTED ENDPOINT: TGI
RESULT: > 100 µM

COMPOUND: Cc1ccc(S(=O)(=O)n2cc(-c3cnc(N)c(Br)n3)c3ccccc32)cc1
REPORTED ENDPOINT: TGI
RESULT: > 55.1 µM

COMPOUND: O=[N+]([O-])c1cccc2nc3ccccc3c(NCCC[N+]3([O-])CCCCC3)c12
REPORTED ENDPOINT: TGI
RESULT: 2.95 µM

COMPOUND: COC(=O)[C@]12CC[C@@H](C)[C@H](C)[C@@H]1C1=CC[C@@H]3[C@@]4(C)C(c5ncon5)=C[C@@](C)(CO)C4=CC[C@@]3(C)[C@]1(C)CC2
REPORTED ENDPOINT: TGI
RESULT: 4.88 µM

COMPOUND: c1ccc([C@H]2CN3CCSC3=N2)cc1
REPORTED ENDPOINT: TGI
RESULT: > 100 µM

COMPOUND: O=C(NN=C1CCCCC1)Nc1ccccc1Cl
REPORTED ENDPOINT: TGI
RESULT: > 100 µM

Each recorded value in this set is attributed to PubChem BioAssay (NCI).
